# measurementTarget: AHR (Homo sapiens)
# Sequence (P35869 11-848): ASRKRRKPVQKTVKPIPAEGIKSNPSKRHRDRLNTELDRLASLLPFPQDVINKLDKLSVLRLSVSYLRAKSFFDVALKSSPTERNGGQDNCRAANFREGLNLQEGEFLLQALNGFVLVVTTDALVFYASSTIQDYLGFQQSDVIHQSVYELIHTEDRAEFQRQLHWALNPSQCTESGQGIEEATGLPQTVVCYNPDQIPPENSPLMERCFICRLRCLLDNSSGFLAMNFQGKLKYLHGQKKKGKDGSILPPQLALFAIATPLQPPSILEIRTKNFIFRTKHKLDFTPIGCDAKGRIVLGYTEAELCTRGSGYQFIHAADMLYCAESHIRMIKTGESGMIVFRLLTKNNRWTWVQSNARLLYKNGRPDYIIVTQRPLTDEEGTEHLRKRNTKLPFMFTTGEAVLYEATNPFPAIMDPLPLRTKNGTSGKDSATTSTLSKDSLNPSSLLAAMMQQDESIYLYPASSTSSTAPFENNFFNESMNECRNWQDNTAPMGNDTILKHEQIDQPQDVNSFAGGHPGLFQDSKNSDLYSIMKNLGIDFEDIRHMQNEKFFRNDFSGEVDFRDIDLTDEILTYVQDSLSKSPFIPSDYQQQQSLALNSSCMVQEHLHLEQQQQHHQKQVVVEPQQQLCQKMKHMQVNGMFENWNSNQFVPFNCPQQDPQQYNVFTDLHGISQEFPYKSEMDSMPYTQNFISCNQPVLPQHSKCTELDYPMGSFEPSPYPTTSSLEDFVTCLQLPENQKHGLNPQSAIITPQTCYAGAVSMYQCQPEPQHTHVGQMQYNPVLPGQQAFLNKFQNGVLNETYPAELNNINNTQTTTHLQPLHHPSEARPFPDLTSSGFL
# measurementProtocol: In vitro assay 1: AHR-luc transactivation assay, antagonism in human cell line (U87 glioblastoma cells, kynurenic acid prestimulated)
# Format: cell-based
# Parameters: U87 glioblastoma cells (ATCC) endogenously expressing AHR; host or cells: U87 glioblastoma cells, stably transfected with DRE-firefly luciferase and renilla reporter constructs only
# recordedConditions: firefly luciferase DRE reporter, 150 μM kynurenic acid, 20 hours, read-out: Assay 1: AHR-luc Hum Antagonism IC50
Criterion: IC50 strictly under 100 nM. Met: Condition met. Not met: Condition not met.

CS(=N)(=O)CCNC(=O)c1cc(-c2ccc(Cl)cc2)nn(-c2cccc(F)c2)c1=O (single isomer, unassigned) [Example 53]; Condition not met
O=C(N[C@@H]1CS(=O)(=O)C[C@@H]1O)c1cc(-c2ccc(C(F)(F)F)cc2)nn(-c2cnsc2)c1=O (single isomer, unassigned) [Example 12]; Condition met

Request: Strictly below 100 nM in IC50? O=C(N[C@@H]1C[S+]([O-])C[C@@H]1O)c1cc(-c2ccc(C(F)(F)F)cc2)nn(-c2cccnc2)c1=O (relative stereo) [Example 33]
Response: Condition not met

Request: # TODO verify IC50 < 100 nM strictly for this compound: C[C@@H](C[S+](C)[O-])NC(=O)c1cc(-c2ccc(C(F)(F)F)cc2)nn(-c2cnn(C)c2)c1=O (single isomer, unassigned) [Example 25]
Response: Condition met

Request: Quick check: does C[C@@H](CS(C)(=O)=O)NC(=O)c1cc(-c2ccc(Cl)cc2)nn(-c2cnn(C)c2)c1=O [Example 50] have IC50 under 100 nM?
Response: Condition met

Request: IC50 strictly < 100 nM for this compound? C[C@@H](CS(C)(=N)=O)NC(=O)c1cc(-c2ccc(C(F)(F)F)cc2)nn(-c2cnn(C)c2)c1=O (single isomer, unassigned) [Example 39]
Response: Condition not met

The origin of these recorded values is patent US11459312B2.
